target or system: hS1P1 (Homo sapiens)
Construct: expressed in transfected cells
Sequence (P21453 whole entry): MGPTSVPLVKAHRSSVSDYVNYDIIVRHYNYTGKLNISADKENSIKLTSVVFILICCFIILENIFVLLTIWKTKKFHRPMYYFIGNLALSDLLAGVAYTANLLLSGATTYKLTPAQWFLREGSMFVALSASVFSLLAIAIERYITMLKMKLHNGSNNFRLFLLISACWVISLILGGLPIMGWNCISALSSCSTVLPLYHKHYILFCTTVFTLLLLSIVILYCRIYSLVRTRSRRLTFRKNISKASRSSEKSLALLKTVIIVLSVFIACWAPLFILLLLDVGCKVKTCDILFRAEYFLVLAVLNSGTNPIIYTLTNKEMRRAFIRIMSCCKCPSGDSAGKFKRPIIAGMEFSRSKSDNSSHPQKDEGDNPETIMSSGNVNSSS
assay procedure: hS1P1 EC50 (S1P receptor Ca2+ flux protocol, CHO K1 Gqi5 cells)
Type: cell-based
value type: EC50

Here are 5 molecules together with their reported answers.
smiles_notation=CCCCOc1ccc2oc(-c3ncc(CN4CC(C(=O)O)C4)s3)cc2c1 reading="1.1 µM"
smiles_notation=O=C(O)C1CN(Cc2ccc(-c3cc4cc(CCc5ccccc5)ccc4o3)cc2)C1 reading="≥ 25 µM"
smiles_notation=CC(C)(CC(=O)O)NCc1ccc(-c2cc3cc(Cc4ccccc4)ccc3o2)c(F)c1 reading="> 25 µM"
smiles_notation=CCCCOc1ccc2oc(-c3ccc(CN4CC(C(=O)O)C4)cc3F)cc2c1 reading="0.52 µM"
smiles_notation=CC(C)Cc1ccc2oc(-c3ccc(CN4CCC(C(=O)O)CC4)cc3)cc2c1 reading="> 25 µM"

Return EC50 measured with hS1P1 (Homo sapiens) given this molecule: "O=C(O)C1CCN(Cc2ccc(-c3cc4cc(Cc5ccccc5)ccc4o3)cc2)CC1"
≥ 25 µM

Record lookup: for hS1P1 (Homo sapiens), what EC50 belongs to "O=C(O)C1CN(Cc2ccc(-c3cc4cc(-c5cccs5)ccc4o3)cc2)C1" ?
≥ 25 µM

// fetch hS1P1 (Homo sapiens) EC50 for "CCCCOc1ccc2cc(-c3ccc(CN4CC(C(=O)O)C4)cc3)oc2c1"
0.2 µM

Recorded EC50 for "O=C(O)C1CCN(Cc2ccc(-c3cc4cc(C5CCCCC5)ccc4o3)cc2)CC1" with hS1P1 (Homo sapiens), please?
> 25 µM

Give hS1P1 (Homo sapiens) EC50 for "CCCCc1ccc2oc(-c3ccc(CN4CCC(C(=O)O)CC4)cc3)cc2c1"
> 25 µM
